- assay text: Half-life in mice
- condition context: mouse, in vivo
metric name: half-life (min)
Expressed in min, but write only the number.

Look at this compound and give its reported half-life. `Cc1cccc(-c2nn3c(c2-c2ccnc4ccc(C(N)=O)cc24)CCC3)n1`
18

Sourced from paper PMC4539082
